- measured.on: PIK3CD (Human) (UniProt O00329)
- Sequence (O00329 whole entry, looked up): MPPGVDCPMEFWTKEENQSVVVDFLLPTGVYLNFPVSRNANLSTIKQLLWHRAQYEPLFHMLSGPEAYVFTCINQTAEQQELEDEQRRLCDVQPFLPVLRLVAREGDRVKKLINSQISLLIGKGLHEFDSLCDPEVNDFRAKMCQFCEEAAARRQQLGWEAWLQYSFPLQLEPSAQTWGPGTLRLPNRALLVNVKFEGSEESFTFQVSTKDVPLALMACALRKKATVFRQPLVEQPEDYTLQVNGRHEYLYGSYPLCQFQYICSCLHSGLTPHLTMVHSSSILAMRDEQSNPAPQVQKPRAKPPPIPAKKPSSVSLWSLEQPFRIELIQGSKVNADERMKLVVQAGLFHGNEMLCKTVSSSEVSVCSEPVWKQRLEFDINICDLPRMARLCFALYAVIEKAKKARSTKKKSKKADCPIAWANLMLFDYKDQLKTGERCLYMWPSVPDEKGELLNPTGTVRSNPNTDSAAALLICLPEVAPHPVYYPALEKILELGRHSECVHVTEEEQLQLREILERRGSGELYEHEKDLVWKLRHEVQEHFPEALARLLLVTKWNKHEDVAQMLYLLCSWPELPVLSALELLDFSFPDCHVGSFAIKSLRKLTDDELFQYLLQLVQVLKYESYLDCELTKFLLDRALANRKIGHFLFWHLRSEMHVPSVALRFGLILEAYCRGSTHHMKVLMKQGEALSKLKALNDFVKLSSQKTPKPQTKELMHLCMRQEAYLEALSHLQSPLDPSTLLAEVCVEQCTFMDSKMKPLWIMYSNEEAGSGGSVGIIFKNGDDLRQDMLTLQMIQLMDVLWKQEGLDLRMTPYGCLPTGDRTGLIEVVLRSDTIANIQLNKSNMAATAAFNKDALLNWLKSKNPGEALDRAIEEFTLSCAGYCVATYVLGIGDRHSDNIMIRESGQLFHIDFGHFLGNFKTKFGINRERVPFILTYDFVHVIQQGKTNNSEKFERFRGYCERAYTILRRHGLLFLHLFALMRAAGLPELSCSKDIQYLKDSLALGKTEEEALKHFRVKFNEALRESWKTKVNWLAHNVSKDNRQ

compound: Cc1ccc(S(=O)(=O)C(C)CCN(C)c2nc3c(C)cccc3cc2CNC(=O)c2nccnc2N)cc1 (configuration not stated)
measured.on: PIK3CD (Human) (UniProt O00329)
IC50: 500 to 1500 nM

compound: Cc1ccc(C)c(-c2nc3c(C)cccc3cc2Cn2cnc3c(N)ncnc32)c1
measured.on: PIK3CD (Human) (UniProt O00329)
IC50: 50 to 250 nM

compound: CNCCN(C)c1nc2c(C)cccc2cc1CNc1cccc(OC)c1
measured.on: PIK3CD (Human) (UniProt O00329)
IC50: 500 to 1500 nM

compound: COc1cccc(NCc2cc3cccc(C)c3nc2-c2ccccc2Cl)c1
measured.on: PIK3CD (Human) (UniProt O00329)
IC50: 500 to 1500 nM

compound: COc1cc(OC)cc(OCc2cc3cccc(C)c3nc2-c2ccccc2Cl)c1
measured.on: PIK3CD (Human) (UniProt O00329)
IC50: 500 to 1500 nM

compound: Cc1cccc2cc(CNC(=O)c3nccnc3N)c(N3CCC(N(C)C(=O)OC(C)(C)C)CC3)nc12
measured.on: PIK3CD (Human) (UniProt O00329)
IC50: 500 to 1500 nM

compound: CNCCCC(C)c1nc2c(C)cccc2cc1CNC(=O)c1nccnc1N (configuration not stated)
measured.on: PIK3CD (Human) (UniProt O00329)
IC50: 50 to 250 nM
